Where these numbers come from: PubChem BioAssay AID1745850

assay: Viability Counterscreen for Confirmatory qHTS for Inhibitors of ATXN expression; settings: HEK-293 ATXN2-luc cells viability, CellTiter-Fluor, 24 h; further: nearly all actives have a fitted effect of over 50% in size; further: potency means the concentration at half of the fitted maximal effect
Screen size: about 2,100 compounds; about 260 (12%) were called active. About 58% were inconclusive and are not listed. Some of the results follow.
Measured endpoint: Potency

stdin: Reported Potency for O=C1c2cccc3cc([N+](=O)[O-])cc(c23)C(=O)N1CCN1CCCC1 : what is it?
stdout: 3160 nM (active)

stdin: # get_value(readout='Potency', item= Nc1ccn(C2OC(COP(=O)(O)O)C(O)C2O)c(=O)n1 (stereo unspecified) )
stdout: inactive

stdin: Which Potency is listed for COc1nn(-c2ccccc2)c(=O)c(Cl)c1Cl ?
stdout: 2820 nM (active)

stdin: Given the entry CCN1CCN(C(=S)c2ccc(-c3ccccc3)cc2)CC1 , report its measured Potency.
stdout: inactive

stdin: Look up Potency: CN(C)c1ccc(C(=O)N/N=C/c2cc(Br)cc(Br)c2O)cc1
stdout: inactive

stdin: Which Potency is reported for this molecule? CCOC(=O)c1c(NC(=O)COC(=O)Cn2cnc3ccccc32)sc(C)c1C
stdout: inactive

stdin: Quick check: Potency of CC(C)=CCc1ccc(O)c(=O)cc1C(C)C ?
stdout: inactive

stdin: // lookup Potency for COc1ccc(C(=O)N/N=C/c2ccc(N(C)c3ccccc3)cc2)cc1
stdout: inactive

New cases:
stdin: Param item = CC(C)(C)c1ccc(Oc2ccc(N)cc2)cc1 ; retrieve measured Potency.
stdout: inactive

stdin: Returns the measured Potency for the input molecule. Input: O=C(Cc1ccccc1)N/N=C/c1cc(Br)cc(Br)c1O
stdout: inactive

stdin: I would be grateful if you could share the reported Potency for O=C(CN1C(=O)c2ccccc2S1(=O)=O)c1ccc(Cl)cc1Cl .
stdout: inactive

----------
assay: Viability Counterscreen for Confirmatory qHTS for Inhibitors of ATXN expression; conditions: HEK-293 ATXN2-luc cells viability, CellTiter-Fluor, 24 h; further: nearly all actives have a fitted effect of over 50% in size
Hit rate of the full screen: of about 2,100 compounds, about 260 (12%) were called active. About 58% were inconclusive and are not listed. Calls come from the whole dose curve; as a rule, active = well fitted cell-killing curve with a large enough effect; inconclusive = small, poorly fitted or top-dose-only effect, or effect the other way; inactive = flat fitted curve, though single readings scatter. The list shows a part of the results.
Response enum: YES (active), NO (inactive)

stdin: Which result was noted for this compound in the test: Cc1ccsc1/C=C/C1=Cc2c(sc(NC(=O)CSc3n[nH]c(N)n3)c2C#N)C(C)(C)C1
stdout: NO

stdin: I'd appreciate the recorded outcome for OC(CNCCc1ccccc1)COc1ccc(OCC(O)CNCCc2ccccc2)cc1 (configuration not stated) from this test.
stdout: YES

stdin: I'd appreciate the recorded outcome for Cc1cccc(/C=N/NC(=O)c2c(-c3ccccc3)noc2C)c1O from this test.
stdout: NO

stdin: // param item: O=C(c1ccco1)N1CCN(c2ccnc3cc(Cl)ccc23)CC1 ; yields the recorded call
stdout: NO

----------
test: Viability Counterscreen for Confirmatory qHTS for Inhibitors of ATXN expression; conditions: HEK-293 ATXN2-luc cells viability, CellTiter-Fluor, 24 h; further: nearly all actives have a fitted effect of over 50% in size; further: potency means the concentration at half of the fitted maximal effect
Among all 2,100 compounds or so, about 260 (12%) were called active. Not shown: some 58% with an inconclusive outcome. The list shows a part of the results.
Measured endpoint: Potency

Solved cases below.
stdin: Name the reported Potency value associated with the compound O=C(CCc1ccccc1)N/N=C/c1cc(Br)ccc1O
stdout: inactive

stdin: Report Potency for O=[N+]([O-])c1ccc(O)c(/C=N/Nc2ncnc3c2cnn3-c2ccccc2)c1 please.
stdout: 12.6 µM (active)

stdin: # input compound: Cc1noc(C)c1CSCC(=O)Nc1nc(-c2ccc(F)c(F)c2)cs1 ; wanted: its Potency
stdout: 28.2 µM (active)

stdin: # lookup: Potency of CN(C)CCCN(C(=O)c1ccco1)c1nc2cc3c(cc2s1)OCO3
stdout: inactive

stdin: May I ask what Potency has been recorded for CCN(c1ccccc1)S(=O)(=O)c1ccc(C(=O)N(CCCN(C)C)c2nc3c(C)cccc3s2)cc1 ?
stdout: 20 µM (active)

Continuing:
stdin: What value of Potency has been reported for the following compound? COc1cccc(/C=N/Nc2ncnc3c2ncn3Cc2ccccc2)c1O
stdout: inactive

stdin: Can you share its Potency? I mean this compound: CC(C)CCNC(=O)COc1cccc2c1OC(C)(C)C2
stdout: inactive

stdin: Given CN(C)CCCN(C(=O)c1ccc(S(=O)(=O)N(C)Cc2ccccc2)cc1)c1nc2cc3c(cc2s1)OCO3 , state its recorded Potency.
stdout: 25.1 µM (active)

stdin: May I ask what Potency has been recorded for COc1cc2ccnc(Cc3cccc(OC)c3OC)c2cc1OC ?
stdout: inactive

stdin: So what's the measured Potency for this one? CCN(CC)S(=O)(=O)c1ccc(N/N=C/c2cc(OC)ccc2O)nc1
stdout: inactive

stdin: I would be grateful if you could share the reported Potency for O=C(/C=C\c1ccco1)Nc1nc(-c2ccc3ccccc3c2)cs1 .
stdout: inactive

stdin: // query Potency value for entry CCn1c(C)cc(C(=O)COC(=O)c2ccccc2[N+](=O)[O-])c1C
stdout: inactive

stdin: Param item = NS(=O)(=O)c1ccc(Nc2nc(-c3ccc(F)cc3)cs2)cc1 ; retrieve measured Potency.
stdout: inactive

stdin: Looking for the measured Potency of FC(F)(F)c1nc(-c2cccs2)ncc1-c1nnnn1-c1ccc(Cl)cc1 , can you help?
stdout: 35.5 µM (active)

----------
Assay: Viability Counterscreen for Confirmatory qHTS for Inhibitors of ATXN expression; further: nearly all actives have a fitted effect of over 50% in size
Settings: HEK-293 ATXN2-luc cells viability, CellTiter-Fluor, 24 h
Source text: PI: Daniel Scoles Ph.D. University of Utah School of Medicine, Salt Lake City, Utah MLPCN Grant: NS073009 Spinocerebellar ataxia type 2 (SCA2) is a multisystem neurodegenerative disease caused by a dominantly acting mutation leading to expansion of a polyQ domain in the ataxin-2 protein (ATXN2). SCA2 patients develop progressive ataxia and later lose function in other neuronal systems. […] Here we describe a 5-7 dose quantitative high thoroughput screen (qHTS) for compounds lowering ATXN2 expression. […]
About 260 (12%) of roughly 2,100 compounds were called active. Inconclusive results (about 58%) are left out. Calls come from the whole dose curve; as a rule, active = well fitted cell-killing curve with a large enough effect; inconclusive = small, poorly fitted or top-dose-only effect, or effect the other way; inactive = flat fitted curve, though single readings scatter. This is one part of the list.
# output must be one of 1 (yes) (active), 0 (no) (inactive)

stdin: Answer briefly: the call reported for Clc1ccc(SCc2cc(N3CCOCC3)nc(-c3ccccn3)n2)cc1 in this assay.
stdout: 1 (yes)

New cases:
stdin: Field: outcome | Entry: Cn1c(N)c(C(=O)Nc2ccc(-c3ccccc3)cc2)sc1=S
stdout: 0 (no)

stdin: What did the test return for CN(C)CCNc1ncnc2c1sc1nc(N3CCOCC3)c3c(c12)CC(C)(C)SC3 ?
stdout: 1 (yes)

----------
test: Viability Counterscreen for Confirmatory qHTS for Inhibitors of ATXN expression; conditions: HEK-293 ATXN2-luc cells viability, CellTiter-Fluor, 24 h; further: nearly all actives have a fitted effect of over 50% in size
The whole screen tested about 2,100 compounds, of which about 260 (12%) were called active. Not shown: some 58% with an inconclusive outcome. Calls come from the whole dose curve; as a rule, active = well fitted cell-killing curve with a large enough effect; inconclusive = small, poorly fitted or top-dose-only effect, or effect the other way; inactive = flat fitted curve, though single readings scatter. The list shows a part of the results.
Log the outcome using a class from active, inactive

Some entries whose results are on file:
stdin: Tell me the assay call for COc1ccc(/C=C/C(=O)c2ccc([N+](=O)[O-])o2)cc1OC please.
stdout: active

stdin: I would be grateful if you could indicate the recorded call for CC(/C=C/c1ccc2c(c1)OCO2)=N\NC(=O)c1cccc([N+](=O)[O-])c1 .
stdout: inactive

stdin: Per the records of this test, what outcome belongs to O=C(NNc1ccnc2cc(Cl)ccc12)C1CCCCC1 ?
stdout: inactive

stdin: Hey, what did the test say about OCCNc1c2ccccc2nc2c(F)c(F)c(F)c(F)c12 ?
stdout: inactive

New cases:
stdin: Which result was noted for this compound in the test: Cc1ccc(C(=O)NC(C)CCc2ccccc2)cc1S(=O)(=O)N1CCOCC1 (configuration not stated)
stdout: inactive

stdin: # lookup: test call for Cc1cc(C(=O)N/N=C/c2cc(Br)ccc2OC(=O)c2ccccc2)n[nH]1
stdout: inactive

stdin: Please let me know the test result on file for COc1cc(C=CC(=O)c2cc(OC)c(OC)c(OC)c2)cc(OC)c1OC .
stdout: active

stdin: Each compound tested received a call. Report the one for CCOc1ccc(S(=O)(=O)NCCC(=O)N2CC=C(c3ccccc3)CC2)cc1 .
stdout: inactive

stdin: // outcome(item) with item = Cc1[nH]c(=O)c(C(=O)/C=C/c2ccccc2)c2c1CCCC2
stdout: active

----------
test: Viability Counterscreen for Confirmatory qHTS for Inhibitors of ATXN expression; details: HEK-293 ATXN2-luc cells viability, CellTiter-Fluor, 24 h; further: nearly all actives have a fitted effect of over 50% in size
Hit rate of the full screen: of about 2,100 compounds, about 260 (12%) were called active. Not shown: some 58% with an inconclusive outcome. Calls come from the whole dose curve; as a rule, active = well fitted cell-killing curve with a large enough effect; inconclusive = small, poorly fitted or top-dose-only effect, or effect the other way; inactive = flat fitted curve, though single readings scatter. Some of the results follow.
API: response.call in true (1) for active, false (0) for inactive

stdin: What is the recorded call for this compound in the test? O=C(NCCc1csc(-c2ccc(Cl)cc2)n1)c1ccco1
stdout: false (0)

stdin: Assay result, entry CCc1cc2c(=O)c(-c3cnn(-c4ccccc4)c3)coc2c(CN2CCOCC2)c1O — outcome?
stdout: false (0)

stdin: Identify the outcome logged in this assay for the compound shown: COc1cccc(OC)c1C(=O)OCC(=O)NC(=O)NCc1ccccc1
stdout: false (0)

stdin: Outcome logged for CC(=O)c1sc(NC(=O)c2cc(-c3ccccc3)nn2-c2ccccc2)nc1C in this assay:
stdout: false (0)

stdin: Per the assay record, what outcome was assigned to CC1CCCN(S(=O)(=O)c2ccc(C(=O)Nc3nnc(-c4ccccc4Cl)o3)cc2)C1 (stereo unspecified) ?
stdout: false (0)

stdin: Dear colleague, could you share the recorded outcome for CCn1c2ccccc2c2cc(NC(=O)COC(=O)c3cccc(S(=O)(=O)NC)c3)ccc21 when you have a moment?
stdout: false (0)

stdin: How did this test come out for CC(=O)c1cccc(-c2ccnc3c2CC(C(=O)Nc2ccc(F)c(Cl)c2)O3)c1 (stereo unspecified) ?
stdout: false (0)

stdin: Which outcome was assigned to Cc1cc(C)c(S(=O)(=O)/N=C2\C=C(Nc3ccc(C(=O)O)cc3)C(=O)c3ccccc32)c(C)c1 in this test?
stdout: true (1)

stdin: Short answer needed: outcome of this test for Cc1cccc2sc(NNC(=O)c3ccc(S(=O)(=O)N4CC(C)CC(C)C4)cc3)nc12 (stereo unspecified) ?
stdout: true (1)

stdin: Per the assay record, what outcome was assigned to Cc1cc(C)c2nc(NNC(=O)c3cc(-c4cccs4)nc4ccccc34)sc2c1 ?
stdout: false (0)

stdin: For this compound, state the assay outcome: CCC(C)(C)c1ccc(OCCCC[n+]2ccc(C)cc2)c(C(C)(C)CC)c1
stdout: false (0)

stdin: # fetch the recorded call for Cc1nnc(SCC(N)=O)n1CC1CCCO1 (stereo unspecified) here
stdout: false (0)
